- System: Klebsiella pneumoniae PCI 602
- test method notes: Minimum Inhibitory Concentration (MIC), antibacterial spectrum in vitro
- Type: cell-based
- experimental conditions: PCI602; Klebsiella pneumoniae PCI 602; read-out: Minimum Inhibitory Concentration (MIC)
Structures can show the parent of a compound that is named as a salt.
measure name: MIC (µg/mL)

# example entries with known answers
CON=C(C(=O)NC1C(=O)N2C(C(=O)[O-])=C(CSc3cc[n+](CC(=O)O)cc3)C(C)OC12)c1csc(N)n1 (stereo not drawn) [Compound 7, (Sodium Salt)]    0.025
CC1OC2C(NC(=O)C(=NOCC(=O)O)c3csc(N)n3)C(=O)N2C(C(=O)[O-])=C1CSc1cc[n+](CCF)cc1 (stereo not drawn) [Compound 19, (Sodium Salt)]    0.39
CON=C(C(=O)NC1C(=O)N2C(C(=O)[O-])=C(CSc3cc[n+](CC(=O)O)cc3)COC12)c1csc(N)n1 (stereo not drawn) [Compound 11, (Sodium Salt)]    0.025
C[n+]1ccc(SCC2=C(C(=O)[O-])N3C(=O)C(NC(=O)C(=NOC(C)(C)C(=O)O)c4csc(N)n4)C3OC2)cc1 (stereo not drawn) [Compound 14, (Sodium Salt)]    0.1

1 = CC1OC2C(NC(=O)C(=NOC(C)(C)C(=O)O)c3csc(N)n3)C(=O)N2C(C(=O)[O-])=C1CSc1cc[n+](CC(F)(F)F)cc1 (stereo not drawn) [Compound 4, (Sodium Salt)]
2 = CO[C@@]1(NC(=O)C(C(=O)O)c2ccc(O)cc2)C(=O)N2C(C(=O)O)=C(CSc3nnnn3C)CO[C@@H]21 (stereo partly drawn) [Latamoxef, reference compound]
Req: Hello, I am sorting some records. Could you say if 1 or 2 has the smaller MIC value? Provide the label of your selected option as the answer.
Resp: 2

###

- Tested on: Klebsiella pneumoniae PCI 602
- test method notes: Minimum Inhibitory Concentration (MIC), antibacterial spectrum in vitro
- Type: cell-based
- experimental conditions: PCI602; Klebsiella pneumoniae PCI 602; read-out: Minimum Inhibitory Concentration (MIC)
Structures can show the parent of a compound that is named as a salt.
measure name: MIC (mg/L)

P = CC(C)(ON=C(C(=O)NC1C(=O)N2C(C(=O)[O-])=C(CSc3cc[n+](CCF)cc3)COC12)c1csc(N)n1)C(=O)O (stereo not drawn)
Q = CON=C(C(=O)NC1C(=O)N2C(C(=O)[O-])=C(CSc3cc[n+](C)cc3)COC12)c1csc(N)n1 (stereo not drawn)
R = CCON=C(C(=O)NC1C(=O)N2C(C(=O)[O-])=C(CSc3cc[n+](CC(=O)O)cc3)C(C)OC12)c1csc(N)n1 (stereo not drawn) [Compound 8, (Sodium Salt)]
S = CCN1CCN(C(=O)NC(C(=O)NC2C(=O)N3C(C(=O)[O-])=C(CSc4cc[n+](C)cc4)COC23)c2csc(N)n2)C(=O)C1=O (racemic) [Compound 20, (Sodium Salt)]
Req: // rank above by MIC: first = highest number # format: label list in the order the request specifies
Resp: S, P, R, Q
(S: 0.2 mg/L, P: 0.1 mg/L, R: 0.05 mg/L, Q: 0.025 mg/L)

###

- System: Proteus morganii 1510
- test method notes: Minimum Inhibitory Concentration (MIC), antibacterial spectrum in vitro
- Type: cell-based
- experimental conditions: Morganella morganii; Proteus morganii 1510; read-out: Minimum Inhibitory Concentration (MIC)
Counter-ions that a name gives are not always drawn.
measure name: MIC (µg/mL)

CON=C(C(=O)NC1C(=O)N2C(C(=O)[O-])=C(CSc3cc[n+](CC(F)(F)F)cc3)C(C)OC12)c1csc(N)n1 (stereo not shown)    6.25

1 = CC1OC2C(NC(=O)C(=NOC(C)(C)C(=O)O)c3csc(N)n3)C(=O)N2C(C(=O)[O-])=C1CSc1cc[n+](CC(=O)O)cc1 (stereo not shown) [Compound 5, (Sodium Salt)]
2 = CC[n+]1ccc(SCC2=C(C(=O)[O-])N3C(=O)C(NC(=O)C(=NOC(C)(C)C(=O)O)c4csc(N)n4)C3OC2C)cc1 (stereo not shown) [Compound 2, (Sodium Salt)]
Req: Sorting by MIC in descending order, would 1 or 2 appear first? Provide the label of your selected option as the answer.
Resp: 1
